Target: Leucine aminopeptidase (Plasmodium falciparum (isolate 3D7))
Experiment: P. falciparum leucine aminopeptidase M17 inhibition – biochemical, QFRET, H-Leu-NHMec substrate, set 3, selectivity assay for PFM18AAP inhibitor project, dose response (AID 624175)
Details: recombinant PfM17LAP, H-Leu-NHMec fluorogenic cleavage
measure: IC50

[
  {
    "molecule": "Oc1ccc(C2CCCN(c3ccnc4ccccc34)C2)cc1O (stereo unspecified)",
    "assay_system": "Leucine aminopeptidase (Plasmodium falciparum (isolate 3D7))",
    "result_value": "53.2 µM"
  },
  {
    "molecule": "Cc1cccc2c(N(C)CCc3ccc(O)c(O)c3)ccnc12",
    "assay_system": "Leucine aminopeptidase (Plasmodium falciparum (isolate 3D7))",
    "result_value": "55.1 µM"
  },
  {
    "molecule": "Cc1cccc2c(NCCc3ccc(O)c(O)c3)ccnc12",
    "assay_system": "Leucine aminopeptidase (Plasmodium falciparum (isolate 3D7))",
    "result_value": "65.3 µM"
  },
  {
    "molecule": "Oc1ccc(CCNc2ccnc3cc(Cl)ccc23)cc1O",
    "assay_system": "Leucine aminopeptidase (Plasmodium falciparum (isolate 3D7))",
    "result_value": "73.4 µM"
  },
  {
    "molecule": "Oc1ccc(CCCNc2c3c(nc4ccccc24)CCCC3)cc1O",
    "assay_system": "Leucine aminopeptidase (Plasmodium falciparum (isolate 3D7))",
    "result_value": "56 µM"
  },
  {
    "molecule": "Oc1ccc(C2CCN(c3ccnc4ccccc34)CC2)cc1O",
    "assay_system": "Leucine aminopeptidase (Plasmodium falciparum (isolate 3D7))",
    "result_value": "38.4 µM"
  }
]

Alright, here's another molecule for you.
Notebook: "Oc1cccc(CCNc2ccnc3ccccc23)c1O" , IC50 read as 35.3 µM

###

Target: Leucine aminopeptidase (Plasmodium falciparum (isolate 3D7)) (UniProt Q8IL11)
Sequence (Q8IL11 whole entry, looked up): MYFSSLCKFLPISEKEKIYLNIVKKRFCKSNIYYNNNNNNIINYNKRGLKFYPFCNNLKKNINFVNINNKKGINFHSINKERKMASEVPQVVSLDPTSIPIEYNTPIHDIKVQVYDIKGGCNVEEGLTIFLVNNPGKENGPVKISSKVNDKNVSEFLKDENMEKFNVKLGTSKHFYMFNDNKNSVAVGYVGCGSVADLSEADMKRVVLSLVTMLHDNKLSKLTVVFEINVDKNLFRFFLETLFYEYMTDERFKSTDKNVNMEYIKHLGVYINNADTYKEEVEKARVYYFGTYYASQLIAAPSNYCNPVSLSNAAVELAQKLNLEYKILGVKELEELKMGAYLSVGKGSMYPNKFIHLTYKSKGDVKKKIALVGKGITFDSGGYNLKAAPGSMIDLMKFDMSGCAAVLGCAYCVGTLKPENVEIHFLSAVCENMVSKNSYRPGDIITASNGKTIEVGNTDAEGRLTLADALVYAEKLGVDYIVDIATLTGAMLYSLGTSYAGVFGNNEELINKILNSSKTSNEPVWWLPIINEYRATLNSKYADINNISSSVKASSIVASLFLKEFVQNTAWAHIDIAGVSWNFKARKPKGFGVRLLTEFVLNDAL
Assay: P. falciparum leucine aminopeptidase M17 inhibition – biochemical, QFRET, H-Leu-NHMec substrate, set 3, selectivity assay for PFM18AAP inhibitor project, dose response (AID 624175)
Details: recombinant PfM17LAP, H-Leu-NHMec fluorogenic cleavage
IC50 listing for selected compounds.

[
  {
    "compound": "CN(CCc1ccc(O)c(O)c1)c1ncnc2ccccc12",
    "measure": "IC50",
    "result_value": "30.4 µM"
  },
  {
    "compound": "Cc1cc(N(C)CCc2ccc(O)c(O)c2)c2ccccc2n1",
    "measure": "IC50",
    "result_value": "47.4 µM"
  },
  {
    "compound": "CN(CCc1ccc(O)c(O)c1)c1ccnc2c(F)cccc12",
    "measure": "IC50",
    "result_value": "34.6 µM"
  },
  {
    "compound": "Oc1ccc(C2CCN(c3ccnc4ccccc34)C2)cc1O (centres undefined)",
    "measure": "IC50",
    "result_value": "30.3 µM"
  },
  {
    "compound": "CC(Cc1ccc(O)c(O)c1)Nc1ccnc2ccccc12 (centres undefined)",
    "measure": "IC50",
    "result_value": "76.5 µM"
  },
  {
    "compound": "Oc1ccc(CCNc2ccnc3c(F)cccc23)cc1O",
    "measure": "IC50",
    "result_value": "35.7 µM"
  },
  {
    "compound": "CN(CCc1ccc(O)c(O)c1)c1ccnc2cc(Cl)ccc12",
    "measure": "IC50",
    "result_value": "44 µM"
  },
  {
    "compound": "CC(C)(CNc1ccnc2ccccc12)c1ccc(O)c(O)c1",
    "measure": "IC50",
    "result_value": "101 µM"
  }
]

Notebook: "CN(CCCc1ccc(O)c(O)c1)c1ccnc2ccccc12" , IC50 read as 57.6 µM
